pKi: −log10 of the molar value.
Several publications report pKi on D(3) dopamine receptor (Homo sapiens); those values are gathered here.
measure.name: pKi

Look over these answered cases.
CCCN(CC[C@]1(O)C[C@@H](NC(=O)c2ccc3ccccc3c2)C1)[C@H]1C[C@@H]1c1cccc(Cl)c1 ... 7.42
CC(C)(C)NCc1ccc(-c2ccccc2Cl)o1 ... 5.26
COc1cc2c(cc1OC)CC1c3cc(OC)c(OC)cc3CCN1CC2 (centres undefined) ... 7.88

I = NC(=O)c1ccc(F)c2c1CC(N(C1CCC1)C1CCC1)CO2 (centres undefined)
II = CCS(=O)(=O)c1cc(C(=O)NCC2CCCN2CC2CC2)c(OC)cc1I (centres undefined)
Query block: Compare I and II and name the one whose reported pKi is smaller. Mark your selection by writing its label.
Result block: I
(I: 6.00, II: 8.89)
